experimental_protocol: yeast display, Sf9 membrane polyspecificity reagent, FACS + sequencing; frameworks hold sequencing errors
assay_metric: polyreactivity (PSR sort gate)

As a guide, the following entries are already answered.
1) QVQLVESGGGLVQAGCSLRLSCAASGSIFRAYAMGWYRHAPGKERELVAGISGSGGSTYYADSVKGRFTISRDNAKNTVYLQMNSLKPQDTAVYYCAKALSTYQRTGCYDYWGQGTQVTVSS    high polyreactivity
2) QVQLVESGGGLVQAGGSLRLSCAASGFIFYDYAMGWYRQAPGKERELVAAISSGGSTNYADSVKGRFTISRDNAKNSVYLQMNSLKPEDTAVYYCAADDRSYATWKRDYDYWGQGTQVTVSS    low polyreactivity
3) QVQLVESGGVLVQAGGSLRLSCAASGSTFVYNAMGWYRQAPGKESEFVAAISGSGGSTYYADSVKGRFTISRDIAKNTVYLQMNSLKPDDTAVYYCATAGRYGRYRTYPYRSKYDYWGQGTQVTVSS    high polyreactivity
4) QVQLVESGGGLVQAGGSLRLSCAASGSTFQWNAMGWYRQAPGKERELVAAISKSGGRTYYADSVKGRFTISRDFAKNTVYLQRNSLKPDDTAVYYCNALGSLDGRYGYWGQGTQVTVSS    high polyreactivity
5) QVQLVESGGGLVQAGGSLRLSCAASGRTFSKYAMGWYRQAPGKERELVAAISKRGDSTYYADSVKGRFTISRDNAKNTVYLQMNSLKPEDTAVYYCARDDYRAYKSYYRYGYWGQGTQVTVSS    low polyreactivity
6) QVHLVESGGGLVQAGGSLRLTCAASGFTFHQYAMGWYRQAPGKERELVAAISQSGDSTYYADSVKGRFTISRDNSKNTVYLQMNSLKQEYTAVYYFNADNDGVVWSDPFDFDYWGQGTQVTVSS    low polyreactivity

Challenge: State its polyreactivity (PSR sort gate): QVQLVESGGGLVQAGGSLRLSCAASGIIFLRNTMGWNRQAPGKERELVASISRRGGSTYYADSVKGRFTISRDNAKNTVYFQLNSLNPEDTAVYYCAATVRGKRSTYDYWGQGTQVTVSS
Response given: high polyreactivity

Challenge: State its polyreactivity (PSR sort gate): QFQLVESGGRLVQAGGSLRLSCAASGSIFYLNAIGSYRQAPGKERELVAAISRSGGRTYYADSVKGRFTISRDNAKNTVYLQMNSLIPEDTAVYYCAADVQAQGAYRGGYWGQGTQVTVSS
Response given: high polyreactivity

Challenge: State its polyreactivity (PSR sort gate): QVQLVESGGGLFQAGGSLRLSCAASGLTFVDNSMGWYRQAPGKEREFVAAITKRGGRTYYADSVKGRFTISRDNAKNTVYLQMTSLKPEDTAVYYCARESGNDSSRRLDYWGQGTQVTVSS
Response given: low polyreactivity

Challenge: State its polyreactivity (PSR sort gate): QVHLVESGGGLVQAGGSLRLSCAAYGRNFQYNAMGWDRQAPGKEREFVASISGSGGRTYYADSVKGRFTISRDNAKNTVYLQMNSLKPEDTAVYYCNASLLFPLLYGPESGEFDYWGQGSQVTVSS
Response given: low polyreactivity

Challenge: State its polyreactivity (PSR sort gate): QVQLVESGGGLVQAGGSLRLSCAASGRTSVSYAMGWYRQAPGKERELVASITSGGSTYYADSVKGRFTISRDNAKNTVYLQMNSLKPEDTAVYYCAARGRNVAGYKGGYWGQGTQVTVSS
Response given: high polyreactivity

Challenge: State its polyreactivity (PSR sort gate): QVQLVESGGGLVQAGGSLRLSCAASGSIFWLYTMGWYRQAPGKERELVATITQSGSTYYADSVKGRFTISRDNAKNTVYLQMNSLKPEDTAVYYCAARVVWGPESDYWGQGTQVTVSS
Response given: low polyreactivity
